Reference for the values: ChEMBL document CHEMBL5385875

System: A549
Assay: Cytotoxicity against human A549 cells assessed as reduction in cell viability incubated for 48 hrs by MTT assay
Assay type: functional, cell-based
Conditions: A549, 48 h
RECORDED_METRIC: IC50

[[record]]
input_smiles = "COc1ccc(/C=C2\\CNC/C(=C\\c3ccc(OC)cc3)C2=O)cc1"
tested_target = "A549"
result = "> 100 µM"

[[record]]
input_smiles = "O=C1/C(=C/c2ccccc2C(F)(F)F)CNC/C1=C\\c1ccccc1C(F)(F)F"
tested_target = "A549"
result = "> 100 µM"

[[record]]
input_smiles = "CN1C/C(=C\\c2ccccc2C(F)(F)F)C(=O)/C(=C/c2ccccc2C(F)(F)F)C1"
tested_target = "A549"
result = "> 100 µM"

